molecular target: Neu5Ac(a2-3)Gal(b1-3)GlcNAc6S; experiment: glycan array binding signal (z-score within array); higher = stronger binding; details: glycan notation: IUPAC condensed, linker removed
About 410 targets per protein were measured; listed, in parts, are those with the strongest signals and a random draw of the rest.

{"binder": "AAL (Aleuria aurantia), P18891 (protein) PTEFLYTSKIAAISWAATGGRQQRVYFQDLNGKIREAQRGGDNPWTGGSSQNVIGEAKLFSPLAAVTWKSAQGIQIRVYCVNKDNILSEFVYDGSKWITGQLGSVGVKVGSNSKLAALQWGGSESAPPNIRVYYQKSNGSGSSIHEYVWSGKWTAGASFGSTVPGTGIGATAIGPGRLRIYYQATDNKIREHCWDSNSWYVGGFSASASAGVSIAAISWGSTPNIRVYWQKGREELYEAAYGGSWNTPGQIKDASRPTPSLPDTFIAANSSGNIDISVFFQASGVSLQQWQWISGKGWSIGAVVPTGTPAGW", "glycan array binding signal (z-score)": -0.493}
{"binder": "Regenerating Gene I (Homo sapiens), P05451 (protein) MAQTSSYFMLISCLMFLSQSQGQEAQTELPQARISCPEGTNAYRSYCYYFNEDRETWVDADLYCQNMNSGNLVSVLTQAEGAFVASLIKESGTDDFNVWIGLHDPKKNRRWHWSSGSLVSYKSWGIGAPSSVNPGYCVSLTSSTGFQKWKDVPCEDKFSFVCKFKN", "glycan array binding signal (z-score)": -0.09}
{"binder": "TbCVNHOb (Tuber borchii) (protein) GSHIGPYMSFYASSEDVRTIEEGGRTWLVGRARRADGSWQDIKLDLDNIIGNRDGHLTWGEQNFTQSASDIRFNFEGGSNVPVLRAKLRNAAGGEQESDLNLGERLTNNNGDLVFN", "glycan array binding signal (z-score)": -0.045}
{"binder": "CLEC5A (Homo sapiens), Q9NY25 (protein) MNWHMIISGLIVVVLKVVGMTLFLLYFPQIFNKSNDGFTTTRSYGTVSQIFGSSSPSPNGFITTRSYGTVCPKDWEFYQARCFFLSTSESSWNESRDFCKGKGSTLAIVNTPEKLKFLQDITDAEKYFIGLIYHREEKRWRWINNSVFNGNVTNQNQNFNCATIGLTKTFDAASCDISYRRICEKNAK", "glycan array binding signal (z-score)": 0.026}
{"binder": "RNase 1 (Homo sapiens) (protein) KESRAKKFQRQHMDSDSSPSSSSTYCNQMMRRRNMTQGRCKPVNTFVHEPLVDVQNVCFQEKVTCKNGQGNCYKSNSSMHITDCRLTNGSRYPNCAYRTSPKERHIIVACEGSPYVPVHFDASVEDST", "glycan array binding signal (z-score)": -0.204}
{"binder": "TREM-2 (Mus musculus), Q99NH8 (protein) MGPLHQFLLLLITALSQALNTTVLQGMAGQSLRVSCTYDALKHWGRRKAWCRQLGEEGPCQRVVSTHGVWLLAFLKKRNGSTVIADDTLAGTVTITLKNLQAGDAGLYQCQSLRGREAEVLQKVLVEVLEDPLDDQDAGDLWVPEESSSFEGAQVEHSTSRNQETSFPPTSILLLLACVLLSKFLAASILWAVARGRQKPGTPVVRGLDCGQDAGHQLQILTGPGGT", "glycan array binding signal (z-score)": -0.078}

Attribution: the supplement of paper PMC8728848
